Quick reference for IC50 among some compounds
- System: PC-3 (human prostate cancer cells)
- test: MTT assay for cell viability, PC-3
- Assay type: cell-based
- cond: Homo sapiens, 48 h

compound="CCN(CC)CC(=O)NC1CCC(=O)N(CC(=O)c2ccccc2)C1=O (centres unmarked)" recorded_value="> 20 µM"

Give recorded IC50 with PC-3 (human prostate cancer cells) for the following compound: CCCCCCCCC[N+](C)(CCCCCCCCC)CC(=O)NC1CCC(=O)N(CC(=O)c2ccccc2)C1=O (centres unmarked)
8.75 µM

Same for CCCCCCCCCN(CCCCCCCCC)CC(=O)NC1CCC(=O)N(CC(=O)c2ccccc2)C1=O (centres unmarked)
> 20 µM

---

- System: HepG2 (hepatocellular carcinoma)
- test: MTT assay for cell viability, HepG2
- Format: cell-based, human
- cond: Homo sapiens, HepG2, 48 h
pIC50: −log10 of the molar value.
pIC50 reference

The following compounds have reported results that may help.
compound="CCCCCCCCCCCCN(CCCCCCCCCCCC)CC(=O)NC1CCC(=O)N(CC(=O)c2ccccc2)C1=O (stereo not shown)" target_under_test="HepG2 (hepatocellular carcinoma)" recorded_value="< 4.70"
compound="CCCCCCCCN(CCCCCCCC)CC(=O)NC1CCC(=O)N(CC(=O)c2ccccc2)C1=O (stereo not shown)" target_under_test="HepG2 (hepatocellular carcinoma)" recorded_value=4.94
compound="CCCCCCCCCCCCC[N+](C)(CCCCCCCCCCCCC)CC(=O)NC1CCC(=O)N(CC(=O)c2ccccc2)C1=O (stereo not shown)" target_under_test="HepG2 (hepatocellular carcinoma)" recorded_value="< 4.70"
compound="CCCCN(CCCC)CC(=O)NC1CCC(=O)N(CC(=O)c2ccccc2)C1=O (stereo not shown)" target_under_test="HepG2 (hepatocellular carcinoma)" recorded_value="< 4.70"
compound="CCCCCCCCCCCCCC[N+](C)(CCCCCCCCCCCCCC)CC(=O)NC1CCC(=O)N(CC(=O)c2ccccc2)C1=O (stereo not shown)" target_under_test="HepG2 (hepatocellular carcinoma)" recorded_value="< 4.70"

Request - read-out pIC50 | tested on HepG2 (hepatocellular carcinoma) | compound CCCC[N+](C)(CCCC)CC(=O)NC1CCC(=O)N(CC(=O)c2ccccc2)C1=O (stereo not shown)
< 4.70

---

- Tested on: PC-3 (human prostate cancer cells)
- test: MTT assay for cell viability, PC-3
- Type: cell-based
- cond: Homo sapiens, 48 h
pIC50: −log10 of the molar value.
# maps each entry to its pIC50

Could you share what pIC50 was measured for CC[N+](C)(CC)CC(=O)NC1CCC(=O)N(CC(=O)c2ccccc2)C1=O (centres unmarked) , tested on PC-3 (human prostate cancer cells)?
< 4.70

---

This section presents molecules with their documented IC50 values.
- System: HepG2 (hepatocellular carcinoma)
- test: MTT assay for cell viability, HepG2
- Type: cell-based, human
- cond: Homo sapiens, HepG2, 48 h
Entry rule: numbers only, all in µM.

Use these answered entries as a reference point.
molecule="CCCCCCCCCCCC[N+](C)(CCCCCCCCCCCC)CC(=O)NC1CCC(=O)N(CC(=O)c2ccccc2)C1=O (stereo not shown)" assay_endpoint=IC50 recorded_value=1.8
molecule="CCCCCCCCC[N+](C)(CCCCCCCCC)CC(=O)NC1CCC(=O)N(CC(=O)c2ccccc2)C1=O (stereo not shown)" assay_endpoint=IC50 recorded_value=3.26
molecule="CCCCCN(CCCCC)CC(=O)NC1CCC(=O)N(CC(=O)c2ccccc2)C1=O (stereo not shown)" assay_endpoint=IC50 recorded_value=12.5
molecule="CCCCCCCCCC[N+](C)(CCCCCCCCCC)CC(=O)NC1CCC(=O)N(CC(=O)c2ccccc2)C1=O (stereo not shown)" assay_endpoint=IC50 recorded_value=3.07
molecule="CCCCCCCN(CCCCCCC)CC(=O)NC1CCC(=O)N(CC(=O)c2ccccc2)C1=O (stereo not shown)" assay_endpoint=IC50 recorded_value=7.81
molecule="CCCCCCCC[N+](C)(CCCCCCCC)CC(=O)NC1CCC(=O)N(CC(=O)c2ccccc2)C1=O (stereo not shown)" assay_endpoint=IC50 recorded_value=3.43

Given the entry CCCCCCC[N+](C)(CCCCCCC)CC(=O)NC1CCC(=O)N(CC(=O)c2ccccc2)C1=O (stereo not shown) , report its measured IC50.
3.3

Another: CCCCCCN(CCCCCC)CC(=O)NC1CCC(=O)N(CC(=O)c2ccccc2)C1=O (stereo not shown)
5.7

---

- Test system: PC-3 (human prostate cancer cells)
- test: MTT assay for cell viability, PC-3
- Format: cell-based
- cond: Homo sapiens, 48 h
# IC50 values compiled below

Recorded IC50, per entry:
molecule="CCCCCCCCCCCCCN(CCCCCCCCCCCCC)CC(=O)NC1CCC(=O)N(CC(=O)c2ccccc2)C1=O (stereo not shown)" target_under_test="PC-3 (human prostate cancer cells)" recorded_value="> 20 µM"
molecule="CCCCCCC[N+](C)(CCCCCCC)CC(=O)NC1CCC(=O)N(CC(=O)c2ccccc2)C1=O (stereo not shown)" target_under_test="PC-3 (human prostate cancer cells)" recorded_value="> 20 µM"
molecule="CCCCCCCN(CCCCCCC)CC(=O)NC1CCC(=O)N(CC(=O)c2ccccc2)C1=O (stereo not shown)" target_under_test="PC-3 (human prostate cancer cells)" recorded_value="> 20 µM"
molecule="CCCCCCCCCCCC[N+](C)(CCCCCCCCCCCC)CC(=O)NC1CCC(=O)N(CC(=O)c2ccccc2)C1=O (stereo not shown)" target_under_test="PC-3 (human prostate cancer cells)" recorded_value="5.6 µM"
molecule="CCCCCCN(CCCCCC)CC(=O)NC1CCC(=O)N(CC(=O)c2ccccc2)C1=O (stereo not shown)" target_under_test="PC-3 (human prostate cancer cells)" recorded_value="> 20 µM"
molecule="CCCCCCCCCCCCC[N+](C)(CCCCCCCCCCCCC)CC(=O)NC1CCC(=O)N(CC(=O)c2ccccc2)C1=O (stereo not shown)" target_under_test="PC-3 (human prostate cancer cells)" recorded_value="> 20 µM"

For CCC[N+](C)(CCC)CC(=O)NC1CCC(=O)N(CC(=O)c2ccccc2)C1=O (stereo not shown) , what is its reported IC50?
> 20 µM

And what about the molecule CCCCN(CCCC)CC(=O)NC1CCC(=O)N(CC(=O)c2ccccc2)C1=O (stereo not shown) ?
> 20 µM

And for CCCCCN(CCCCC)CC(=O)NC1CCC(=O)N(CC(=O)c2ccccc2)C1=O (stereo not shown) ?
> 20 µM

And the next one, CCCCCCCCCCCCN(CCCCCCCCCCCC)CC(=O)NC1CCC(=O)N(CC(=O)c2ccccc2)C1=O (stereo not shown) ?
> 20 µM

What about this molecule? CCCCCCCCCC[N+](C)(CCCCCCCCCC)CC(=O)NC1CCC(=O)N(CC(=O)c2ccccc2)C1=O (stereo not shown)
4.23 µM

Then CCCCC[N+](C)(CCCCC)CC(=O)NC1CCC(=O)N(CC(=O)c2ccccc2)C1=O (stereo not shown) ?
> 20 µM

Do the same for CCCCCCCCCCCN(CCCCCCCCCCC)CC(=O)NC1CCC(=O)N(CC(=O)c2ccccc2)C1=O (stereo not shown) please
17.4 µM
